Sourced from PubChem BioAssay AID2060486

# System: IGROV1 complex spheroids (HUVEC, MSC), viability % test/control
# Test Description: Anticancer human tumor IGROV1 cell line growth inhibition [GQUAD];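 note: spheroids exposed to compounds for 7 days before readout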
# Applied Conditions: curve of first compound; second compound 0.0316 µM
Kindly supply the reported IC50 values for the records listed here.
# unit: µM | format: bare number

Given the entry Cc1[nH]c2ccccc2c1CCNCc1ccc(/C=C/C(=O)NO)cc1 + Cc1[nH]c2ccc(F)cc2c1-c1nc2c3cccnc3c3ncccc3c2[nH]1 , report its measured IC50. 0.0228

Same again, this time with O=C(NO)c1cnc(N2CCN(S(=O)(=O)c3ccc4ccccc4c3)CC2)nc1 + Cc1[nH]c2ccc(F)cc2c1-c1nc2c3cccnc3c3ncccc3c2[nH]1 0.0989

Next up: Cc1[nH]c2ccccc2c1CCNCc1ccc(/C=C/C(=O)NO)cc1 + Cc1cnc(CNC(=O)c2c(=O)c3ccc(N4CCCN(C)CC4)nc3n3c2sc2ccccc23)cn1 0.00626

---

# Tested on: IGROV1 complex spheroids (HUVEC, MSC), viability % test/control
# Test Description: Anticancer human tumor IGROV1 cell line growth inhibition [GQUAD];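 note: spheroids exposed to compounds for 7 days before readout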
# Applied Conditions: curve of first compound; second compound 0.0316 µM
Classify by IC50. Ranges: interval 1 = under 50 nM, interval 2 = from 50 nM up to 1000 nM, interval 3 = 1000 nM and over

# bin label for COc1cc(C2c3cc4c(cc3C(OC3OC5COC(C)OC5C(O)C3O)C3COC(=O)C23)OCO4)cc(OC)c1O (configuration not stated) + CN(C)c1ccc(Nc2c3ccc(NC(=O)CCN4CCCC4)cc3nc3cc(NC(=O)CCN4CCCC4)ccc23)cc1 interval 2

Same question, CC1COCCN1c1cc(C2(O)CC3CCC(C2)O3)c2cnn(-c3ccn[nH]3)c2n1 (configuration not stated) + Cc1cnc(CNC(=O)c2c(=O)c3ccc(N4CCCN(C)CC4)nc3n3c2sc2ccccc23)cn1 this time interval 1

Next: COc1cccc2c1C(=O)c1c(O)c3c(c(O)c1C2=O)CC(O)(C(=O)CO)CC3OC1CC(N)C(O)C(C)O1 (configuration not stated) + Cc1cnc(CNC(=O)c2c(=O)c3ccc(N4CCCN(C)CC4)nc3n3c2sc2ccccc23)cn1 interval 1

Please answer likewise for CC(C)(O)C1CCC(Nc2ccc3ncc(-c4cccc(C(F)(F)F)c4)n3n2)CC1 (configuration not stated) + CN(C)c1ccc(Nc2c3ccc(NC(=O)CCN4CCCC4)cc3nc3cc(NC(=O)CCN4CCCC4)ccc23)cc1 interval 3

Moving on to O=c1[nH]cc(F)c(=O)[nH]1 + CN(C)c1ccc(Nc2c3ccc(NC(=O)CCN4CCCC4)cc3nc3cc(NC(=O)CCN4CCCC4)ccc23)cc1 interval 3

Try this compound too: Cc1[nH]c2ccccc2c1CCNCc1ccc(/C=C/C(=O)NO)cc1 + CN(C)c1ccc(Nc2c3ccc(NC(=O)CCN4CCCC4)cc3nc3cc(NC(=O)CCN4CCCC4)ccc23)cc1 interval 1

Then what about the compound Cc1cccc(N(C)C(=O)C2C(O)CCN2c2nc(C)cc(C(F)(F)F)c2C#N)c1 (configuration not stated) + Cc1cnc(CNC(=O)c2c(=O)c3ccc(N4CCCN(C)CC4)nc3n3c2sc2ccccc23)cn1 ? interval 3

Please give the result for COc1cc(C2c3cc4c(cc3C(OC3OC5COC(C)OC5C(O)C3O)C3COC(=O)C23)OCO4)cc(OC)c1O (configuration not stated) + Cc1[nH]c2ccc(F)cc2c1-c1nc2c3cccnc3c3ncccc3c2[nH]1 too. interval 2

Same read-out for CC1COCCN1c1cc(C2(O)CC3CCC(C2)O3)c2cnn(-c3ccn[nH]3)c2n1 (configuration not stated) + Cc1[nH]c2ccc(F)cc2c1-c1nc2c3cccnc3c3ncccc3c2[nH]1 ? interval 1

Also, COc1ccc([C@@H](O)c2cc(-c3ncnc4cc(N5CCOCC5)ccc34)c(F)cc2Cl)nn1 + Cc1[nH]c2ccc(F)cc2c1-c1nc2c3cccnc3c3ncccc3c2[nH]1 please. interval 2

Also, CCc1c2c(nc3ccc(O)cc13)-c1cc3c(c(=O)n1C2)COC(=O)[C@]3(O)CC + CN(C)c1ccc(Nc2c3ccc(NC(=O)CCN4CCCC4)cc3nc3cc(NC(=O)CCN4CCCC4)ccc23)cc1 please. interval 1

Follow-up item: CC(C)(O)C1CCC(Nc2ccc3ncc(-c4cccc(C(F)(F)F)c4)n3n2)CC1 (configuration not stated) + Cc1cnc(CNC(=O)c2c(=O)c3ccc(N4CCCN(C)CC4)nc3n3c2sc2ccccc23)cn1 interval 2

What do we get for CC(C)n1c(=O)n(C)c2cnc3cc(F)c(-c4ccc(OCCCN5CCCCC5)nc4)cc3c21 + Cc1[nH]c2ccc(F)cc2c1-c1nc2c3cccnc3c3ncccc3c2[nH]1 ? interval 3

For C=CCn1c(=O)c2cnc(Nc3ccc(N4CCN(C)CC4)cc3)nc2n1-c1cccc(C(C)(C)O)n1 + CN(C)c1ccc(Nc2c3ccc(NC(=O)CCN4CCCC4)cc3nc3cc(NC(=O)CCN4CCCC4)ccc23)cc1 then? interval 2

Subsequent entry: Nc1ccn(C2OC(CO)C(O)C2(F)F)c(=O)n1 (configuration not stated) + Cc1cnc(CNC(=O)c2c(=O)c3ccc(N4CCCN(C)CC4)nc3n3c2sc2ccccc23)cn1 interval 1

O=C(c1cc(Cc2n[nH]c(=O)c3ccccc23)ccc1F)N1CCN(C(=O)C2CC2)CC1 + Cc1[nH]c2ccc(F)cc2c1-c1nc2c3cccnc3c3ncccc3c2[nH]1 ? interval 3

Now this one: CC[C@@]1(O)C(=O)OCc2c1cc1n(c2=O)Cc2cc3c(CN(C)C)c(O)ccc3nc2-1 + Cc1[nH]c2ccc(F)cc2c1-c1nc2c3cccnc3c3ncccc3c2[nH]1 interval 1

Same question, COc1ncnc(C2CC2)c1-c1ncc2cnn(Cc3ccc(-c4nc(C(F)(F)F)cn4C(C)C)cc3)c2n1 + Cc1[nH]c2ccc(F)cc2c1-c1nc2c3cccnc3c3ncccc3c2[nH]1 this time interval 3

Next record, please: O=c1[nH]cc(F)c(=O)[nH]1 + Cc1[nH]c2ccc(F)cc2c1-c1nc2c3cccnc3c3ncccc3c2[nH]1 interval 3

---

# Tested on: IGROV1 complex spheroids (HUVEC, MSC), viability % test/control
# Test Description: Anticancer human tumor IGROV1 cell line growth inhibition [GQUAD];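 note: spheroids exposed to compounds for 7 days before readout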;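 for viability, T/C: 100% = DMSO vehicle control viability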
# Applied Conditions: second compound 10 µM; first compound 10 µM; stronger effect = lower value
Readout Kind: viability, T/C

# get_value(readout= viability, T/C, system= IGROV1 complex spheroids (HUVEC, MSC), viability % test/control) for COc1cc(C2c3cc4c(cc3C(OC3OC5COC(C)OC5C(O)C3O)C3COC(=O)C23)OCO4)cc(OC)c1O (stereo unspecified) + Cc1[nH]c2ccc(F)cc2c1-c1nc2c3cccnc3c3ncccc3c2[nH]1 4.34%

What do you get for CC1COCCN1c1cc(-c2ccnn2C)c2ccnc(-c3ccn[nH]3)c2n1 (stereo unspecified) + Cc1cnc(CNC(=O)c2c(=O)c3ccc(N4CCCN(C)CC4)nc3n3c2sc2ccccc23)cn1 ? 2.74%

Further, for CC1COCCN1c1cc(C2(S(C)(=N)=O)CC2)nc(-c2ccnc3[nH]ccc23)n1 (stereo unspecified) + Cc1[nH]c2ccc(F)cc2c1-c1nc2c3cccnc3c3ncccc3c2[nH]1 ? 2.63%

What do you have for CCCS(=O)(=O)Nc1ccc(F)c(C(=O)c2c[nH]c3ncc(-c4ccc(Cl)cc4)cc23)c1F + Cc1[nH]c2ccc(F)cc2c1-c1nc2c3cccnc3c3ncccc3c2[nH]1 ? 2.93%

Repeat for the following compound: O=C(c1cc(Cc2n[nH]c(=O)c3ccccc23)ccc1F)N1CCN(C(=O)C2CC2)CC1 + Cc1cnc(CNC(=O)c2c(=O)c3ccc(N4CCCN(C)CC4)nc3n3c2sc2ccccc23)cn1 9.07%

Entry Nc1ccn(C2OC(CO)C(O)C2(F)F)c(=O)n1 (stereo unspecified) + Cc1cnc(CNC(=O)c2c(=O)c3ccc(N4CCCN(C)CC4)nc3n3c2sc2ccccc23)cn1 please 3.66%

---

# Tested on: IGROV1 complex spheroids (HUVEC, MSC), viability % test/control
# Test Description: Anticancer human tumor IGROV1 cell line growth inhibition [GQUAD];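 note: spheroids exposed to compounds for 7 days before readout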
# Applied Conditions: curve of first compound; second compound 1 µM
# Source text: DNA G-quadruplex Stabilizer Agents in Combinations in Complex Spheroids A high-throughput screen of multi-cell type tumor spheroids was designed to identify active combinations of DNA G-quadruplex stabilizer agents and targeted small molecules. […] Compounds. […] If the clinical Cmax for an agent had not been determined, the highest concentration tested was 10 microM. […]
pIC50: −log10 of the molar value.
Readout Kind: pIC50

Form field: reported pIC50 of Cc1[nH]c2ccccc2c1CCNCc1ccc(/C=C/C(=O)NO)cc1 + Cc1[nH]c2ccc(F)cc2c1-c1nc2c3cccnc3c3ncccc3c2[nH]1 > 9.00

And what about the compound CC1COCCN1c1cc(-c2ccnn2C)c2ccnc(-c3ccn[nH]3)c2n1 (centres undefined) + Cc1cnc(CNC(=O)c2c(=O)c3ccc(N4CCCN(C)CC4)nc3n3c2sc2ccccc23)cn1 ? > 7.50

Now consider Cc1[nH]c2ccccc2c1CCNCc1ccc(/C=C/C(=O)NO)cc1 + CN(C)c1ccc(Nc2c3ccc(NC(=O)CCN4CCCC4)cc3nc3cc(NC(=O)CCN4CCCC4)ccc23)cc1 . 7.83

Same again, this time with C=CC(=O)N1CCN(c2nc(=O)n(-c3c(C)ccnc3C(C)C)c3nc(-c4c(O)cccc4F)c(F)cc23)C(C)C1 (centres undefined) + Cc1cnc(CNC(=O)c2c(=O)c3ccc(N4CCCN(C)CC4)nc3n3c2sc2ccccc23)cn1 > 7.50

# iterate: C=CCn1c(=O)c2cnc(Nc3ccc(N4CCN(C)CC4)cc3)nc2n1-c1cccc(C(C)(C)O)n1 + Cc1cnc(CNC(=O)c2c(=O)c3ccc(N4CCCN(C)CC4)nc3n3c2sc2ccccc23)cn1 > 7.50

# iterate: Cc1cccc(N(C)C(=O)C2C(O)CCN2c2nc(C)cc(C(F)(F)F)c2C#N)c1 (centres undefined) + Cc1cnc(CNC(=O)c2c(=O)c3ccc(N4CCCN(C)CC4)nc3n3c2sc2ccccc23)cn1 > 7.50

Next: CC(C)(O)C1CCC(Nc2ccc3ncc(-c4cccc(C(F)(F)F)c4)n3n2)CC1 (centres undefined) + Cc1cnc(CNC(=O)c2c(=O)c3ccc(N4CCCN(C)CC4)nc3n3c2sc2ccccc23)cn1 > 7.50

Next compound up: Nc1ccn(C2OC(CO)C(O)C2(F)F)c(=O)n1 (centres undefined) + Cc1cnc(CNC(=O)c2c(=O)c3ccc(N4CCCN(C)CC4)nc3n3c2sc2ccccc23)cn1 > 7.50

Next entry: C#Cc1c(F)ccc2cc(O)cc(-c3ncc4c(N5CC6CCC(C5)N6)nc(OCC56CCCN5CC(F)C6)nc4c3F)c12 (centres undefined) + Cc1cnc(CNC(=O)c2c(=O)c3ccc(N4CCCN(C)CC4)nc3n3c2sc2ccccc23)cn1 > 7.50
